Biological target: UniProt P03956
Sequence (P03956 whole entry): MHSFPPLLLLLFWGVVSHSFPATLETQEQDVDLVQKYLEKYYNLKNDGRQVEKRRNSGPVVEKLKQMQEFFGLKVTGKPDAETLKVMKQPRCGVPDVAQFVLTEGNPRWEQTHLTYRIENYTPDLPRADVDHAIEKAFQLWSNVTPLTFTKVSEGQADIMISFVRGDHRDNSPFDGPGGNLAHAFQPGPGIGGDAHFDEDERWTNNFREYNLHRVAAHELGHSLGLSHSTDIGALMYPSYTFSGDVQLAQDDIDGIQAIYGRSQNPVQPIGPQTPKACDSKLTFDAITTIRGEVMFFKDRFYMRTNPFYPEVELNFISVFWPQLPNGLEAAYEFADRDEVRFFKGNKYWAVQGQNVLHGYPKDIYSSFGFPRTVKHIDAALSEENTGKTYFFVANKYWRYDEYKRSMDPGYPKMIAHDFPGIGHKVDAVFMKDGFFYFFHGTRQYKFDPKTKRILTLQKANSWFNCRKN
Measured attribute: Ki

INSERT INTO results (smiles_input, measured_attribute, reading) VALUES
  ('NC[C@H]1O[C@H](O[C@H]2[C@H](O)[C@@H](O)[C@H](N=C(N)N)C[C@@H]2N=C(N)N)[C@H](N=C(N)N)[C@@H](O)[C@@H]1O', 'Ki', '> 300 µM'),
  ('NC[C@H]1O[C@H](O[C@H]2[C@H](O)[C@@H](O)[C@H](N)C[C@@H]2N=C(N)N)[C@H](N=C(N)N)[C@@H](O)[C@@H]1O', 'Ki', '> 300 µM');

## Input For the molecule shown here, `N=C(N)NC[C@H]1O[C@H](O[C@H]2[C@H](O)[C@@H](O)[C@H](NC(=N)N)C[C@@H]2NC(=N)N)[C@H](NC(=N)N)[C@@H](O)[C@@H]1O` , give the reported Ki.
## Output > 300 µM

## Input # query: Ki of entry `CO[C@@H]1[C@@H](OC)[C@H](N=C(N)N)C[C@H](N=C(N)N)[C@H]1O[C@H]1O[C@H](CN=C(N)N)[C@@H](OC)[C@H](OC)[C@H]1N=C(N)N`
## Output > 300 µM

---

Target: Lethal factor (Bacillus anthracis)
Sequence (P15917 whole entry): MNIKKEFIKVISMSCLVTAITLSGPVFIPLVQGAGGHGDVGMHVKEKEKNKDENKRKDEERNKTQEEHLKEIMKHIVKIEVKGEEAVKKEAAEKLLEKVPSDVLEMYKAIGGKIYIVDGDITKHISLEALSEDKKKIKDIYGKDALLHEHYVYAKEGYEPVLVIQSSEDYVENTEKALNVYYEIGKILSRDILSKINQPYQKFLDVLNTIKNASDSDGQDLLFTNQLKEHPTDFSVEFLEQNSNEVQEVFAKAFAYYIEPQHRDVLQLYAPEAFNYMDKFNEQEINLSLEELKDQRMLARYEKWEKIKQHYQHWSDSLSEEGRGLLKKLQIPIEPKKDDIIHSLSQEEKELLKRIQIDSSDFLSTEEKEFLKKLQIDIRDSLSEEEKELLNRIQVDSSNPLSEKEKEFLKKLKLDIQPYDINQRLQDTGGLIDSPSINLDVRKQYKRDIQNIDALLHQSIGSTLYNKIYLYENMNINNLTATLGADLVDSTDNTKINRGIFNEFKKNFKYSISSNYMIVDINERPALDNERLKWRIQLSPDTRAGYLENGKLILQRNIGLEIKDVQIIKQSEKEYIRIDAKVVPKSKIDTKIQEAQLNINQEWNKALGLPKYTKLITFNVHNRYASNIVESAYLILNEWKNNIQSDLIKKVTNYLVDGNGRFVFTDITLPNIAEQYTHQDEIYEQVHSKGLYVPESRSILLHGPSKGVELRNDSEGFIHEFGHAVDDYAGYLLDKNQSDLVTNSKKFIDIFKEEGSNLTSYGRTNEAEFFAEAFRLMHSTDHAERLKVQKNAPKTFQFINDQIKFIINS
Measured attribute: Ki (µM)
Provide the reading as a plain figure in µM.

Consider the worked cases shown below.
INSERT INTO assay_data (smiles_input, reading) VALUES
  ('NC(N)=NC[C@H]1O[C@H](O[C@H]2[C@H](O)[C@@H](O)[C@H](N=C(N)N)C[C@@H]2N)[C@H](N)[C@@H](O)[C@@H]1O', 10.2),
  ('NC(N)=NC[C@H]1O[C@H](O[C@H]2[C@H](O)[C@@H](O)[C@H](N)C[C@@H]2N=C(N)N)[C@H](N)[C@@H](O)[C@@H]1O', 8.8),
  ('NC[C@H]1O[C@H](O[C@H]2[C@H](O)[C@@H](O)[C@H](N=C(N)N)C[C@@H]2N)[C@H](N=C(N)N)[C@@H](O)[C@@H]1O', 5.3),
  ('NC[C@H]1O[C@H](O[C@H]2[C@H](O)[C@@H](O)[C@H](N)C[C@@H]2N=C(N)N)[C@H](N=C(N)N)[C@@H](O)[C@@H]1O', 0.7);

## Input Hi! What's the reported Ki for `NC[C@H]1O[C@H](O[C@H]2[C@H](O)[C@@H](O)[C@H](N=C(N)N)C[C@@H]2N=C(N)N)[C@H](N)[C@@H](O)[C@@H]1O` on Lethal factor (Bacillus anthracis)?
## Output 5.6

## Input What is its Ki for Lethal factor (Bacillus anthracis)? Entry: `NC(N)=NC[C@H]1O[C@H](O[C@H]2[C@H](O)[C@@H](O)[C@H](N=C(N)N)C[C@@H]2N=C(N)N)[C@H](N)[C@@H](O)[C@@H]1O`
## Output 8.7

## Input Provide the documented Ki with Lethal factor (Bacillus anthracis) as the system for `NC[C@H]1O[C@H](O[C@H]2[C@H](O)[C@@H](O)[C@H](N=C(N)N)C[C@@H]2N)[C@H](N)[C@@H](O)[C@@H]1O`
## Output 5

## Input Please state recorded Ki (tested on Lethal factor (Bacillus anthracis)) of `CO[C@@H]1[C@@H](OC)[C@H](N=C(N)N)C[C@H](N=C(N)N)[C@H]1O[C@H]1O[C@H](CN=C(N)N)[C@@H](OC)[C@H](OC)[C@H]1N=C(N)N`
## Output 1.5

## Input Give Ki (Lethal factor (Bacillus anthracis)) of the following molecule: `NC[C@H]1O[C@H](O[C@H]2[C@H](O)[C@@H](O)[C@H](N)C[C@@H]2N)[C@H](N=C(N)N)[C@@H](O)[C@@H]1O`
## Output 10.9

## Input What Ki appears in the records for this molecule with Lethal factor (Bacillus anthracis)? `NC(N)=NC[C@H]1O[C@H](O[C@H]2[C@H](O)[C@@H](O)[C@H](N)C[C@@H]2N)[C@H](N=C(N)N)[C@@H](O)[C@@H]1O`
## Output 7.7

## Input Notebook: pull reported Ki for Lethal factor (Bacillus anthracis), entry `NC(N)=NC[C@H]1O[C@H](O[C@H]2[C@H](O)[C@@H](O)[C@H](N)C[C@@H]2N)[C@H](N)[C@@H](O)[C@@H]1O`
## Output 24.3

## Input Observed Ki on Lethal factor (Bacillus anthracis) for `NC[C@H]1O[C@H](O[C@H]2[C@H](O)[C@@H](O)[C@H](N=C(N)N)C[C@@H]2N=C(N)N)[C@H](N=C(N)N)[C@@H](O)[C@@H]1O` , please.
## Output 0.5

## Input Identify the measured Ki of `N=C(N)NC[C@H]1O[C@H](O[C@H]2[C@H](O)[C@@H](O)[C@H](NC(=N)N)C[C@@H]2NC(=N)N)[C@H](NC(=N)N)[C@@H](O)[C@@H]1O` for Lethal factor (Bacillus anthracis).
## Output 0.7
